- target-desc: T1, human MICA002 on cells (human)
- T1 chain: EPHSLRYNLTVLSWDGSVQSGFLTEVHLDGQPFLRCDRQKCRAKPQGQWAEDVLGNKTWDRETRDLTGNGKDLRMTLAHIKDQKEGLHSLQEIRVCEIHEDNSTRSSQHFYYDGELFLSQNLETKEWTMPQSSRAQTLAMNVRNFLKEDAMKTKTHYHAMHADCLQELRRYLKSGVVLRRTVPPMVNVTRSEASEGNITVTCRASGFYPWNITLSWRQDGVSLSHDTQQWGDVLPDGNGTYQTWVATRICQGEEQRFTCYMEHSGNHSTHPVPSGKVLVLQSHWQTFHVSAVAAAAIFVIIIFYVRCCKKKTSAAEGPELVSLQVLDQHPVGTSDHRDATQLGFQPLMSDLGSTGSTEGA
- assay-summary: flow cytometry, CHO-MICA002 cells
readout-label: EC50 (µg/mL)

binder="#36 (antibody, human IgG1, V domains shown, also called PL116H11; Hit ID 36) VH: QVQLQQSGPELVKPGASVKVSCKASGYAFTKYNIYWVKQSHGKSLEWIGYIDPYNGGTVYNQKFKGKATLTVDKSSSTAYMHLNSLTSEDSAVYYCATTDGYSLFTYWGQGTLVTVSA VL: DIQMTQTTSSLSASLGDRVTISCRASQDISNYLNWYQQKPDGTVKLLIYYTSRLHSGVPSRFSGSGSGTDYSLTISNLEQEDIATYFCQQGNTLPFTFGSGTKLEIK" numeric_readout=0.2
